So I've got a bunch of compounds here, and I need their viability at 28.5 h, 10 µM values.
test details: in vitro
test conditions: human, hela cells, % viability
In your response, put the unit directly after the numeric value.

Exercise: Provide one value: measured viability at 28.5 h, 10 µM of CCNc1cncc(-c2ccc(OC)cc2)n1
Solution: 92.1%

Exercise: Provide one value: measured viability at 28.5 h, 10 µM of Cc1ccc(CNC(=O)Cn2cc(-c3ccc(CN4CCC(C)CC4)cc3)nn2)cc1
Solution: 87.1%

Exercise: Provide one value: measured viability at 28.5 h, 10 µM of CCOC(=O)Cc1nnc(-c2cccc(C(F)(F)F)c2)[nH]1
Solution: 81.1%

Exercise: Provide one value: measured viability at 28.5 h, 10 µM of CN(C)CCN(Cc1cccnc1)C(=O)C1(c2ccccc2F)CC1
Solution: 97%

Exercise: Provide one value: measured viability at 28.5 h, 10 µM of COC(=O)C(NC(=O)c1cnc(-c2cccc(C(F)(F)F)c2)c(-c2ccncc2)c1)c1ccccc1 (stereo not drawn)
Solution: 98.9%

Exercise: Provide one value: measured viability at 28.5 h, 10 µM of FC(F)(F)c1ccc2[nH]c(Cn3cncn3)nc2c1
Solution: 85.3%

Exercise: Provide one value: measured viability at 28.5 h, 10 µM of O=C(c1ccc2nccnc2c1)N1CCN(c2ccccc2)CC1
Solution: 92.9%

Exercise: Provide one value: measured viability at 28.5 h, 10 µM of CC1CCCC(C)N1S(=O)(=O)c1ccc(NS(=O)(=O)c2cccc(C(=O)O)c2)cc1 (stereo not drawn)
Solution: 94.6%

Exercise: Provide one value: measured viability at 28.5 h, 10 µM of O=C(CSc1nnc(-c2ccco2)[nH]1)Nc1cccc(Cl)c1
Solution: 96.7%

* * *

So I've got a bunch of molecules here, and I need their viability at 28.5 h, 10 µM values.
test details: in vitro
test conditions: human, hela cells, % viability
The reply should contain only the number, in %.

Exercise: Provide one value: measured viability at 28.5 h, 10 µM of COc1ccc(C(=O)N2CCC(C)CC2)cc1[N+](=O)[O-]
Solution: 93.3

Exercise: Provide one value: measured viability at 28.5 h, 10 µM of c1cn2cc(-c3ccc(N4CCOCC4)cc3)nc(NCC3CCOCC3)c2n1
Solution: 96.3

Exercise: Provide one value: measured viability at 28.5 h, 10 µM of CC(C)(C)c1csc(C(=Cc2ccc(C#N)cc2)C(N)=O)n1
Solution: 88.7

Exercise: Provide one value: measured viability at 28.5 h, 10 µM of COc1ccc(C(=O)Nn2c(SCC(=O)c3ccc(F)cc3)nc3ccccc3c2=O)cc1
Solution: 99.7

Exercise: Provide one value: measured viability at 28.5 h, 10 µM of COc1ccccc1/C=N/NC(=O)COc1c(Br)cc(Br)cc1Br
Solution: 95.2

* * *

So I've got a bunch of compounds here, and I need their viability at 28.5 h, 10 µM values.
test details: in vitro
test conditions: human, hela cells, % viability
The reply should contain only the number, in %.

Exercise: Provide one value: measured viability at 28.5 h, 10 µM of COC(=O)CC1CCC(NC(=O)C(F)(F)F)CC1 (stereo not drawn)
Solution: 97.4

Exercise: Provide one value: measured viability at 28.5 h, 10 µM of COc1cccc(C(=O)Nc2nc(-c3ccc(C(C)C)cc3)cs2)c1
Solution: 87

Exercise: Provide one value: measured viability at 28.5 h, 10 µM of O=C(O)C[C@@H]1CCN(C(=O)C2CCCCC2)C[C@@H]1CC1=NCCc2ccccc21
Solution: 101

Exercise: Provide one value: measured viability at 28.5 h, 10 µM of COc1ccc(OC)c(C(C)NC(=O)C2CCN(CCc3cccs3)CC2)c1 (stereo not drawn)
Solution: 98.8

Exercise: Provide one value: measured viability at 28.5 h, 10 µM of CN(C)C(=O)c1ccc(Cn2nc(C(=O)NCCOc3ccccc3)c3ccccc32)cc1
Solution: 91.7

Exercise: Provide one value: measured viability at 28.5 h, 10 µM of O=C(CN1CCCC2(CCN(C(=O)Cc3c[nH]c4ccccc34)C2)C1)c1ccsc1 (stereo not drawn)
Solution: 96.3

Exercise: Provide one value: measured viability at 28.5 h, 10 µM of CCc1nc2ccc(C(=O)N3CCN(c4ccccc4)CC3)cn2c1N(C)Cc1ccc(OC)cc1
Solution: 85.4

Exercise: Provide one value: measured viability at 28.5 h, 10 µM of COc1ccc2[nH]cc(CCNC(=O)Cc3c[nH]c4ccc(O)cc34)c2c1
Solution: 98.6

Exercise: Provide one value: measured viability at 28.5 h, 10 µM of O=C(CSc1nnc(-c2ccccc2O)o1)c1ccc(Cl)cc1
Solution: 98.4
